- method description: Proliferation of uninfected mouse embryo fibroblasts (MEF)
- Type: cell-based
- test conditions: mouse, mouse embryo fibroblasts; calculated on dose-effects lines; uninfected MEF, 3 days treatment; read-out: MEF proliferation ID 50 (Inhibiting Dose 50%)
metric name: IC50 at 72 h
Write the numeric value and append its unit.

Before answering, review these 3 worked examples.
COc1cccc2c1C(=O)c1c(O)c3c(c(O)c1C2=O)C[C@@](O)(C(=O)CN1CCOCC1)C[C@@H]3O[C@H]1C[C@H](N)[C@H](O)[C@H](C)O1 ... 0.5 mg/L
COc1cccc2c1C(=O)c1c(O)c3c(c(O)c1C2=O)C[C@@](O)(C(=O)CN1CCN(CCO)CC1)C[C@@H]3O[C@H]1C[C@H](N)[C@H](O)[C@H](C)O1 ... 0.08 mg/L
COc1cccc2c1C(=O)c1c(O)c3c(c(O)c1C2=O)C[C@@](O)(C(=O)CN1CCN(C)CC1)C[C@@H]3O[C@H]1C[C@H](N)[C@H](O)[C@H](C)O1 [14-[N-(N'-methyl)-piperazino]-daunomycin] ... 0.09 mg/L

Prompt line: Need IC50 at 72 h of COc1cccc2c1C(=O)c1c(O)c3c(c(O)c1C2=O)C[C@@](O)(C(=O)CO)C[C@@H]3O[C@H]1C[C@H](N)[C@H](O)[C@H](C)O1 [Adriamycin, reference compound] , thanks.
Response line: 0.01 mg/L

Prompt line: What value of IC50 at 72 h has been reported for the following molecule? COc1cccc2c1C(=O)c1c(O)c3c(c(O)c1C2=O)C[C@@](O)(C(=O)CN1CCCCC1)C[C@@H]3O[C@H]1C[C@H](N)[C@H](O)[C@H](C)O1
Response line: 0.1 mg/L

Prompt line: Returns the measured IC50 at 72 h for the input molecule. Input: COc1cccc2c1C(=O)c1c(O)c3c(c(O)c1C2=O)C[C@@](O)(C(=O)CN(CCO)CCO)C[C@@H]3O[C@H]1C[C@H](N)[C@H](O)[C@H](C)O1
Response line: 0.13 mg/L

====

- Tested on: ascites Sarcoma 180
- method description: Antitumor activity and toxicity on ascites Sarcoma 180 in CD 1 mice
- Type: in vivo
- test conditions: 5 mg./kg. i.p.; deaths/total
metric name: Toxic Deaths

COc1cccc2c1C(=O)c1c(O)c3c(c(O)c1C2=O)C[C@@](O)(C(=O)CO)C[C@@H]3O[C@H]1C[C@H](N)[C@H](O)[C@H](C)O1 [Adriamycin, reference compound] ... 5/47
COc1cccc2c1C(=O)c1c(O)c3c(c(O)c1C2=O)C[C@@](O)(C(=O)CN1CCOCC1)C[C@@H]3O[C@H]1C[C@H](N)[C@H](O)[C@H](C)O1 ... 0/10
COc1cccc2c1C(=O)c1c(O)c3c(c(O)c1C2=O)C[C@@](O)(C(=O)CN(CCO)CCO)C[C@@H]3O[C@H]1C[C@H](N)[C@H](O)[C@H](C)O1 ... 0/10
COc1cccc2c1C(=O)c1c(O)c3c(c(O)c1C2=O)C[C@@](O)(C(=O)CN1CCCCC1)C[C@@H]3O[C@H]1C[C@H](N)[C@H](O)[C@H](C)O1 ... 0/10
COc1cccc2c1C(=O)c1c(O)c3c(c(O)c1C2=O)C[C@@](O)(C(=O)CN1CCN(CCO)CC1)C[C@@H]3O[C@H]1C[C@H](N)[C@H](O)[C@H](C)O1 ... 0/10

Prompt line: // Toxic Deaths lookup, key: COc1cccc2c1C(=O)c1c(O)c3c(c(O)c1C2=O)C[C@@](O)(C(C)=O)C[C@@H]3O[C@H]1C[C@H](N)[C@H](O)[C@H](C)O1
Response line: 3/20

Prompt line: Consider the compound shown here: COc1cccc2c1C(=O)c1c(O)c3c(c(O)c1C2=O)C[C@@](O)(C(=O)CN1CCN(C)CC1)C[C@@H]3O[C@H]1C[C@H](N)[C@H](O)[C@H](C)O1 [14-[N-(N'-methyl)-piperazino]-daunomycin] What is its recorded Toxic Deaths?
Response line: 0/10

Values were extracted from patent US4024224A.
